target.entity: T1, Human EphA2 (ephrin receptor A2) (human, UniProt P29317 24-976)
T1 construct: Endogenous protein in frozen human tumor tissue and tumor adjacent tissue, not a recombinant construct
protocol.summary: IHC/IF score on frozen human tumor tissue, ER+ BRC
quantity.kind: IHC score

- AB-009813 (antibody, mouse IgG2a, V domains shown) VH: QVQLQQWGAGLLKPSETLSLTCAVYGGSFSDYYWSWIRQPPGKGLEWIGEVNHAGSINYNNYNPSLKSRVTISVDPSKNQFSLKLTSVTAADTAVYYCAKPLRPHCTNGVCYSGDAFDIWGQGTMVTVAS VL: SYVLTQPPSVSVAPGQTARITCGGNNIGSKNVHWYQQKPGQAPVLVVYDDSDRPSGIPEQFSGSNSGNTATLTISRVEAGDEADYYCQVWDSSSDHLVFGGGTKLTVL: 1
- AB-009816 (antibody, mouse IgG2a, V domains shown) VH: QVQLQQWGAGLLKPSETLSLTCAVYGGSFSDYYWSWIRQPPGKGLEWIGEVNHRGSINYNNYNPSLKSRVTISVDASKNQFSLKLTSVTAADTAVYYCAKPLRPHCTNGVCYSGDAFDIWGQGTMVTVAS VL: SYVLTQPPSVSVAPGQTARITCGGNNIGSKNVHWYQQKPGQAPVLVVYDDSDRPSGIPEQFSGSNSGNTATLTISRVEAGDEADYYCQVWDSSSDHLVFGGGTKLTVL: 1
- AB-009815 (antibody, mouse IgG2a, V domains shown) VH: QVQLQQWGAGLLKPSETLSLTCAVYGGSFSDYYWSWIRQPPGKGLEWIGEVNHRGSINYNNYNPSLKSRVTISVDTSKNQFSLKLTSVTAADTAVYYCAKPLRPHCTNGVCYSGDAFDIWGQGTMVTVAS VL: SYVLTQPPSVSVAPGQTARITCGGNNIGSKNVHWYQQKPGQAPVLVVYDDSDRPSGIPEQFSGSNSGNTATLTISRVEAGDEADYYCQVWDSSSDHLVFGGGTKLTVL: 1
- AB-009812 (antibody, mouse IgG2a, V domains shown) VH: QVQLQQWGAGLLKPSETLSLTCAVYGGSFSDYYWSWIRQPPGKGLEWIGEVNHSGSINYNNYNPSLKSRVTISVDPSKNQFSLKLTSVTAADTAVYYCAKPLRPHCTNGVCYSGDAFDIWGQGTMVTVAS VL: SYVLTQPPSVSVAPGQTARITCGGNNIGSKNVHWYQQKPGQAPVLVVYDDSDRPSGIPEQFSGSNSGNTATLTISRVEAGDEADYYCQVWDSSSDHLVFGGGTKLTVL: 1
